- experimentNotes: Plasma stability, human plasma
- Type: in vitro ADME
- statedConditions: 37° C., sampled up to 240 min
Bridge positions count the residues as written; N and C are the ends. Square brackets hold non-standard residues; d marks the D form. Peptide text beside a SMILES is read from it. Cha = N[C@@H](CC1CCCCC1)C(=O)O
Listed molecules paired with reported Plasmastability human pl. T1/2
Express it in h; write the number only.

Consider the following illustrative entries.
molecule	numericResult
CC(C)[C@@H]1NC(=O)[C@@H]2CSSC[C@H](NC(=O)[C@H](CC(=O)O)NC(=O)[C@@H]3CCCN3C(=O)[C@H]3CCCN3C1=O)C(=O)N[C@@H](Cc1ccccc1)C(=O)N[C@H](Cc1c[nH]c3ccccc13)C(=O)N[C@@H](CCCCN)C(=O)N[C@@H](Cc1ccc(O)cc1)C(=O)N2 [compound 34]	4
NCCCC[C@@H]1NC(=O)[C@H](Cc2c[nH]c3ccccc23)NC(=O)[C@H](Cc2ccccc2)NC(=O)[C@@H]2CSSC[C@H](NC(=O)[C@H](Cc3ccc(O)cc3)NC1=O)C(=O)N[C@@H](CC1CCCCC1)C(=O)N1CCC[C@@H]1C(=O)N1CCC[C@H]1C(=O)N[C@@H](CC(=O)O)C(=O)N2 [compound 35] (cyclo(DCFWKYC[Cha][dP]P); disulfide 2-7)	4
CC(C)C[C@@H]1NC(=O)[C@@H]2CSSC[C@H](NC(=O)[C@H](CC(=O)O)NC(=O)[C@@H]3CCCN3C(=O)[C@H]3CCCN3C1=O)C(=O)N[C@@H](Cc1ccc(O)cc1)C(=O)N[C@@H](Cc1c[nH]c3ccccc13)C(=O)N[C@@H](CCCCN)C(=O)N[C@@H](Cc1ccc(O)cc1)C(=O)N2 [compound 33]	4

Attention now shifts to the item below.
Problem: // Plasmastability human pl. T1/2 lookup, key: CC(C)C[C@@H]1NC(=O)[C@@H]2CSSC[C@H](NC(=O)[C@H](CC(=O)O)NC(=O)[C@@H]3CCCN3C(=O)[C@@H](CO)NC1=O)C(=O)N[C@@H](Cc1ccccc1)C(=O)N[C@@H](Cc1c[nH]c3ccccc13)C(=O)N[C@@H](CCCCN)C(=O)N[C@@H](Cc1ccc(O)cc1)C(=O)N2 [Ex. 28]
Result: 4

Reference source: patent US20170369523A1
